Values compiled from paper PMC12529666.

molecular target: AGO2 L192P (Homo sapiens, UniProt Q9UKV8 1-859, L192P;S387D;S824A;S828D;S831D;S834A); assay: RNA Bind-n-Seq (nitrocellulose filter binding and sequencing); miR-122 guide loaded in AGO2; 60 min incubation; 30 mM Tris pH 8.0, 100 mM potassium acetate, 2 mM magnesium acetate, 0.5 mM TCEP, 0.005% NP-40, 0.01 mg/ml yeast tRNA; 3 nM AGO2-miR-122, 100 nM RNA library; 60; high values mean tight binding; conditions: protein: recombinant; tags: His6 (N-terminal, pFastBac HTA)
Sequence (Q9UKV8 whole entry L192P/S387D/S824A/S828D/S831D/S834A): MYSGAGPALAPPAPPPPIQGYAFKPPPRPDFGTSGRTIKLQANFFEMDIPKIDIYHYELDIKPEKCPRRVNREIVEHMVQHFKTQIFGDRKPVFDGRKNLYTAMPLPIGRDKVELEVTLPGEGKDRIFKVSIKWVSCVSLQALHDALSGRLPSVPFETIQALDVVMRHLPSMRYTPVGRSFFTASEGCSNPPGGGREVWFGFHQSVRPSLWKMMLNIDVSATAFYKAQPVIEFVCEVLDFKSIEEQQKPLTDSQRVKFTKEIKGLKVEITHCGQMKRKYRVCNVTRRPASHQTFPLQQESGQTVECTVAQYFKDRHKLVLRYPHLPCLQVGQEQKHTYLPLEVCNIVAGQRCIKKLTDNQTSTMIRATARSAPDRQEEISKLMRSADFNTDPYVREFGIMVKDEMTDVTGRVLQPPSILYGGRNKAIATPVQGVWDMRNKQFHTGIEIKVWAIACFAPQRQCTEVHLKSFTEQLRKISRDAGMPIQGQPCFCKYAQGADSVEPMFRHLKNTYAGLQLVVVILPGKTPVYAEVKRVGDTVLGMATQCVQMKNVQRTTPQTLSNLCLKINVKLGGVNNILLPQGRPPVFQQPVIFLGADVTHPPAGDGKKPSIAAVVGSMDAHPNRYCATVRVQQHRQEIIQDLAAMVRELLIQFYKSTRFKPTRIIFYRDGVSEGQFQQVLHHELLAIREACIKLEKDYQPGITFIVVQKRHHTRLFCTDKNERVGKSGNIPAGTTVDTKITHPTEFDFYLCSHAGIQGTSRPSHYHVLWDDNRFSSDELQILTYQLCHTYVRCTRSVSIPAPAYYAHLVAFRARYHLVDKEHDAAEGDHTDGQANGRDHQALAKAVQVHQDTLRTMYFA
measure: binding signal

- GTGCTTCG (ssRNA, constant regions annealed to DNA blockers; guide miR-122 5' phosphate) RNA 1: GAGUUCUACAGUCCGACGAUCCCAACGUGCUUCGCACCUGGAAUUCUCGGGUGCCAA RNA 2: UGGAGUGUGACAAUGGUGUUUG DNA 1: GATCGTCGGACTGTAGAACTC DNA 2: TTGGCACCCGAGAATTCCA: 0.455 fold enrichment over input
- ATGCCCCG (ssRNA, constant regions annealed to DNA blockers; guide miR-122 5' phosphate) RNA 1: GAGUUCUACAGUCCGACGAUCCCAACAUGCCCCGCACCUGGAAUUCUCGGGUGCCAA RNA 2: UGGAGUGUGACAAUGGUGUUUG DNA 1: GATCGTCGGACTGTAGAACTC DNA 2: TTGGCACCCGAGAATTCCA: 0.377 fold enrichment over input
- ATGCTCCG (ssRNA, constant regions annealed to DNA blockers; guide miR-122 5' phosphate) RNA 1: GAGUUCUACAGUCCGACGAUCCCAACAUGCUCCGCACCUGGAAUUCUCGGGUGCCAA RNA 2: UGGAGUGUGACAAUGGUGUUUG DNA 1: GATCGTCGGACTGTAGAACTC DNA 2: TTGGCACCCGAGAATTCCA: 1.56 fold enrichment over input
- GCACTCTA (ssRNA, constant regions annealed to DNA blockers; guide miR-122 5' phosphate) RNA 1: GAGUUCUACAGUCCGACGAUCCCAACGCACUCUACACCUGGAAUUCUCGGGUGCCAA RNA 2: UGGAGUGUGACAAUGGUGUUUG DNA 1: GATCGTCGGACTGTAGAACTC DNA 2: TTGGCACCCGAGAATTCCA: 0.562 fold enrichment over input
- ATGTCTCA (ssRNA, constant regions annealed to DNA blockers; guide miR-122 5' phosphate) RNA 1: GAGUUCUACAGUCCGACGAUCCCAACAUGUCUCACACCUGGAAUUCUCGGGUGCCAA RNA 2: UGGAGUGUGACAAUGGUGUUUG DNA 1: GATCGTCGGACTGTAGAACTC DNA 2: TTGGCACCCGAGAATTCCA: 0.674 fold enrichment over input
- ATGCTCTA (ssRNA, constant regions annealed to DNA blockers; guide miR-122 5' phosphate) RNA 1: GAGUUCUACAGUCCGACGAUCCCAACAUGCUCUACACCUGGAAUUCUCGGGUGCCAA RNA 2: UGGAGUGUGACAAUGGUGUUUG DNA 1: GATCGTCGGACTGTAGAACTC DNA 2: TTGGCACCCGAGAATTCCA: 0.443 fold enrichment over input

response.value for GCGCCCTG (ssRNA, constant regions annealed to DNA blockers; guide miR-122 5' phosphate) RNA 1: GAGUUCUACAGUCCGACGAUCCCAACGCGCCCUGCACCUGGAAUUCUCGGGUGCCAA RNA 2: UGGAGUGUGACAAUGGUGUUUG DNA 1: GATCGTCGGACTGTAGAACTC DNA 2: TTGGCACCCGAGAATTCCA (field: binding signal) = 0.424 fold enrichment over input

response.value for GCACTTCA (ssRNA, constant regions annealed to DNA blockers; guide miR-122 5' phosphate) RNA 1: GAGUUCUACAGUCCGACGAUCCCAACGCACUUCACACCUGGAAUUCUCGGGUGCCAA RNA 2: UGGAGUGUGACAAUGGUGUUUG DNA 1: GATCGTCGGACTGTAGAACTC DNA 2: TTGGCACCCGAGAATTCCA (field: binding signal) = 0.575 fold enrichment over input
